Test system: TE-4 (Esophageal Squamous Cell Carcinoma)
Assay: combination Emax (second highest fraction inhibited in the dose matrix, 72 h); higher = more inhibition; extreme values may be limits of the assay

Compound	combination Emax
COc1cccc(OCCCN)c1-c1cc(Nc2cnc(C#N)cn2)n[nH]1 [Prexasertib] + C[C@@H]1COCCN1C2=NC(=NC(=C2)C3(CC3)[S@](=N)(=O)C)C4=C5C=CNC5=NC=C4 [AZD6738] (first compound max 1 µM, 7x7, partner max 10 µM)	0.652

----------
Tested on: HCC-15 (Squamous Cell Lung Carcinoma)
Assay: combination Emax (second highest fraction inhibited in the dose matrix, 72 h); higher = more inhibition; extreme values may be limits of the assay

Compound	combination Emax
Cc1c2c(nn1C)CSCc1cc(n(C)n1)CSc1cc(c3ccccc3c1)OCCCc1c(C(=O)O)n(C)c3c-2c(Cl)ccc13 [AZD5991] + CC1(C)CCC(CN2CCN(c3ccc(C(=O)NS(=O)(=O)c4ccc(NCC5CCOCC5)c([N+](=O)[O-])c4)c(Oc4cnc5[nH]ccc5c4)c3)CC2)=C(c2ccc(Cl)cc2)C1 [Venetoclax] (first compound max 1 µM, 7x7, partner max 1 µM)	0.323
C[C@@H](c1ccc2nccn2c1)n1nnc2ncc(-c3cnn(C)c3)nc21 [Savolitinib] + CC1(C)CCC(CN2CCN(c3ccc(C(=O)NS(=O)(=O)c4ccc(NCC5CCOCC5)c([N+](=O)[O-])c4)c(Oc4cnc5[nH]ccc5c4)c3)CC2)=C(c2ccc(Cl)cc2)C1 [Venetoclax] (first compound max 1 µM, 7x7, partner max 1 µM)	0.175
Cc1cc2ncnn2cc1Nc1ncc2c(n1)n(C1CCOCC1)c(=O)n2C [AZD7648] + C=CCn1c(=O)c2cnc(Nc3ccc(N4CCN(C)CC4)cc3)nc2n1-c1cccc(C(C)(C)O)n1 [AZD1775] (first compound max 10 µM, partner max 1 µM)	0.345
CN(C)CCCOc1ccc(-c2ccc3ncc4c(c3c2)n(C2CCOCC2)c(=O)n4C)cn1 [AZD0156] + C[C@@H]1COCCN1C2=NC(=NC(=C2)C3(CC3)[S@](=N)(=O)C)C4=C5C=CNC5=NC=C4 [AZD6738] (first compound max 1 µM, 7x7, partner max 10 µM)	0.146
COc1cc2c(cc1OCCCCCOc1cc3c(cc1OC)C(=O)N1C=C(C)C[C@H]1C=N3)N=C[C@@H]1CC(C)=CN1C2=O [SG3199] + O=C(c1cc(Cc2n[nH]c(=O)c3ccccc23)ccc1F)N1CCN(C(=O)C2CC2)CC1 [Olaparib] (first compound max 0.001 µM, 7x7, partner max 10 µM)	0.145
Cc1nc(Nc2ncc(C(=O)Nc3c(C)cccc3Cl)s2)cc(N2CCN(CCO)CC2)n1 [Dasatinib] + CC(=O)Nc1cccc(-n2c(=O)n(C3CC3)c(=O)c3c(Nc4ccc(I)cc4F)n(C)c(=O)c(C)c32)c1 [Trametinib] (first compound max 2 µM, 7x7, partner max 1 µM)	0.853

----------
// values below are reported Bliss excess
Test system: Mewo (Melanoma);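 note: after 72 h of two-drug dosing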
Test: Bliss excess, mean over the matrix (fraction); higher = more synergy

Compound	Bliss excess
NC1(C(=O)N[C@@H](CCO)c2ccc(Cl)cc2)CCN(c2ncnc3[nH]ccc23)CC1 [Capivasertib] + Cn1cnc2c(F)c(Nc3ccc(Br)cc3Cl)c(C(=O)NOCCO)cc21 [Selumetinib] (first compound max 10 µM, 7x7, partner max 10 µM)	0.0069
CN(CCO)CC[C@H](CSc1ccccc1)Nc1ccc(S(=O)(=O)NC(=O)c2ccc(N3CCC([C@@H](O)c4ccccc4-c4ccc(Cl)cc4)CC3)cc2)cc1S(=O)(=O)C(F)(F)F [AZD4320] + Cc1cc2ncnn2cc1Nc1ncc2c(n1)n(C1CCOCC1)c(=O)n2C [AZD7648] (first compound max 1 µM, 7x7, partner max 10 µM)	-0.0104
